Assay: The drug is tested on Bacteroides ovatus strain: ATCC8483 for biotransformation. The drug concentrations were measured before and after a 12-h incubation by liquid-chromatography-coupled mass spectrometry (LC–MS)
Details: 2 µM

# molecule, Bacterial Biotransformation
rows = [
    ("O=C(O[C@H]1C[C@H]2CC[C@@H](C1)[N+]21CCCC1)C(O)(c1ccccc1)c1ccccc1.[Cl-] [TROSPIUM CHLORIDE]", "Compound NOT metabolized"),
    ("CCC1(c2ccc(N)cc2)CCC(=O)NC1=O (centres undefined) [AMINOGLUTETHIMIDE]", "Compound NOT metabolized"),
    ("O=C1CC2(CCCC2)CC(=O)N1CCCCN1CCN(c2ncccn2)CC1", "Compound NOT metabolized"),
]

###

Conditions: parabacteroides distasonis, 12 h, 2 µM
Description: The drug is tested on Parabacteroides distasonis strain: ATCC8503 for biotransformation. The drug concentrations were measured before and after a 12-h incubation by liquid-chromatography-coupled mass spectrometry (LC–MS)
Non-standard residues stand in square brackets, D forms with d. Residues, ends and D or L forms follow the SMILES beside them. pGlu = O=C1CC[C@@H](C(=O)O)N1; Thz = O=C(O)[C@@H]1CSCN1
outcome.measure: Bacterial Biotransformation

Below: 5 compounds and their reported Bacterial Biotransformation.
# compound, test.value
data = [
    ("CC[C@@H](CO)NC(=O)[C@@H]1C=C2c3cccc4c3c(cn4C)C[C@H]2N(C)C1.O=C(O)/C=C\\C(=O)O [METHYSERGIDE MALEATE]", "Compound metabolized"),
    ("C[C@]12C=CC(=O)C=C1CC[C@@H]1[C@@H]2C(=O)C[C@@]2(C)[C@H]1CC[C@]2(O)C(=O)CO", "Compound NOT metabolized"),
    ("CCCc1nc2c(C)cc(-c3nc4ccccc4n3C)cc2n1Cc1ccc(-c2ccccc2C(=O)O)cc1", "Compound metabolized"),
    ("O=C1CC[C@@H](C(=O)N2CSC[C@H]2C(=O)O)N1 [PIDOTIMOD] ([pGlu]-[Thz]-OH)", "Compound metabolized"),
    ("CC1OC(OC2C(O)CC(OC3C(O)CC(OC4CCC5(C)C(CCC6C5CCC5(C)C(C7=CC(=O)OC7)CCC65O)C4)OC3C)OC2C)CC(O)C1O (stereo unspecified)", "Compound metabolized"),
]

Please indicate Bacterial Biotransformation recorded for `Cc1ccc(NC(=O)c2ccc(CN3CCN(C)CC3)cc2)cc1Nc1nccc(-c2cccnc2)n1`
Compound NOT metabolized

Please indicate Bacterial Biotransformation recorded for C[N+]12CCC(CC1)C(OC(=O)C(O)(c1ccccc1)c1ccccc1)C2.[Br-] (stereo unspecified) [CLIDINIUM BROMIDE]
Compound NOT metabolized

Please indicate Bacterial Biotransformation recorded for `N#Cc1ccc(C(c2ccc(C#N)cc2)n2cncn2)cc1`
Compound NOT metabolized

Please indicate Bacterial Biotransformation recorded for `COC1=CC(=O)C[C@@H](C)[C@]12Oc1c(Cl)c(OC)cc(OC)c1C2=O`
Compound metabolized

Please indicate Bacterial Biotransformation recorded for `CN1CCc2cccc3c2[C@H]1Cc1ccc(O)c(O)c1-3`
Compound NOT metabolized

Please indicate Bacterial Biotransformation recorded for CC(C)[C@H]1CC[C@H](C(=O)N[C@H](Cc2ccccc2)C(=O)O)CC1 [NATEGLINIDE]
Compound NOT metabolized

Please indicate Bacterial Biotransformation recorded for `CCCc1nc(C(C)(C)O)c(C(=O)OCc2oc(=O)oc2C)n1Cc1ccc(-c2ccccc2-c2nnn[nH]2)cc1`
Compound metabolized

Please indicate Bacterial Biotransformation recorded for O=C1C(CC[S+]([O-])c2ccccc2)C(=O)N(c2ccccc2)N1c1ccccc1 (stereo unspecified)
Compound NOT metabolized

Please indicate Bacterial Biotransformation recorded for `CC(=O)O[C@H]1C(=O)[C@@]2(C)[C@H]([C@H](OC(=O)c3ccccc3)[C@]3(O)C[C@H](OC(=O)[C@H](O)[C@@H](NC(=O)c4ccccc4)c4ccccc4)C(C)=C1C3(C)C)[C@]1(OC(C)=O)CO[C@@H]1C[C@@H]2O`
Compound NOT metabolized

Please indicate Bacterial Biotransformation recorded for `CN1CCN(C(=O)O[C@H]2c3nccnc3C(=O)N2c2ccc(Cl)cn2)CC1`
Compound NOT metabolized

Please indicate Bacterial Biotransformation recorded for `Clc1ccc(Cn2c(CN3CCCC3)nc3ccccc32)cc1`
Compound NOT metabolized

Please indicate Bacterial Biotransformation recorded for `CN/C(=N/CCSCc1nc[nH]c1C)NC#N`
Compound NOT metabolized

Please indicate Bacterial Biotransformation recorded for `Cc1ccc(-c2cc(C(F)(F)F)nn2-c2ccc(S(N)(=O)=O)cc2)cc1`
Compound NOT metabolized

###

Assay: The drug is tested on Anaerotruncus colihominis strain: DSM17241 for biotransformation. The drug concentrations were measured before and after a 12-h incubation by liquid-chromatography-coupled mass spectrometry (LC–MS)
Conditions: 2 µM
outcome.measure: Bacterial Biotransformation

Below: 8 compounds and their reported Bacterial Biotransformation.
# compound, test.value
records = [
    ("CCN(CC)CCNC(=O)c1cc(S(C)(=O)=O)ccc1OC [TIAPRIDE]", "Compound NOT metabolized"),
    ("COc1ccccc1N1CCN(CC(O)COc2cccc3ccccc23)CC1 (stereo unspecified) [NAFTOPIDIL]", "Compound NOT metabolized"),
    ("O=C1[C@H](CC[C@H](O)c2ccc(F)cc2)[C@@H](c2ccc(O)cc2)N1c1ccc(F)cc1 [EZETIMIBE]", "Compound NOT metabolized"),
    ("CCN(CC)C(=O)/C(C#N)=C/c1cc(O)c(O)c([N+](=O)[O-])c1 [ENTACAPONE]", "Compound metabolized"),
    ("O=P(O)(O)O.c1ccc(CN(CC2=NCCN2)c2ccccc2)cc1 [ANTAZOLINE PHOSPHATE]", "Compound NOT metabolized"),
    ("O=c1n(CCCN2CCN(c3cccc(Cl)c3)CC2)nc2ccccn12 [TRAZODONE]", "Compound NOT metabolized"),
    ("N#Cc1ccc2[nH]cc(CCCCN3CCN(c4ccc5oc(C(N)=O)cc5c4)CC3)c2c1 [VILAZODONE]", "Compound NOT metabolized"),
    ("O=c1[nH]c2ccccc2n1C1CCN(CCCC(c2ccc(F)cc2)c2ccc(F)cc2)CC1 [PIMOZIDE]", "Compound metabolized"),
]

Please indicate Bacterial Biotransformation recorded for CNS(=O)(=O)Cc1ccc2[nH]cc(CCN(C)C)c2c1.O=C(O)CCC(=O)O [SUMATRIPTAN SUCCINATE]
Compound NOT metabolized

Please indicate Bacterial Biotransformation recorded for CN(C)CCOC(C)(c1ccccc1)c1ccccn1.O=C(O)CCC(=O)O (stereo unspecified) [DOXYLAMINE SUCCINATE]
Compound NOT metabolized

Please indicate Bacterial Biotransformation recorded for CN(C)CC(c1ccc(O)cc1)C1(O)CCCCC1.O=C(O)CCC(=O)O (stereo unspecified) [DESVENLAFAXINE SUCCINATE]
Compound NOT metabolized

###

Assay: The drug is tested on Dorea formicigenerans strain: ATCC27755 for biotransformation. The drug concentrations were measured before and after a 12-h incubation by liquid-chromatography-coupled mass spectrometry (LC–MS)
Settings: 2 µM
Non-standard residues stand in square brackets, D forms with d. Residues, ends and D or L forms follow the SMILES beside them. pGlu = O=C1CC[C@@H](C(=O)O)N1; Thz = O=C(O)[C@@H]1CSCN1
outcome.measure: Bacterial Biotransformation

Below: 5 compounds and their reported Bacterial Biotransformation.
# compound, Bacterial Biotransformation
measured = [
    ("O=C1CC[C@@H](C(=O)N2CSC[C@H]2C(=O)O)N1 [PIDOTIMOD] ([pGlu]-[Thz]-OH)", "Compound NOT metabolized"),
    ("OCCN(CCO)c1nc(N2CCCCC2)c2nc(N(CCO)CCO)nc(N3CCCCC3)c2n1", "Compound NOT metabolized"),
    ("COc1ccc(CCN(C)CCCC(C#N)(c2ccc(OC)c(OC)c2)C(C)C)cc1OC (stereo not given)", "Compound NOT metabolized"),
    ("O=C(O[C@H]1C[C@H]2CC[C@@H](C1)[N+]21CCCC1)C(O)(c1ccccc1)c1ccccc1.[Cl-] [TROSPIUM CHLORIDE]", "Compound NOT metabolized"),
    ("COC(=O)[C@H](c1ccccc1Cl)N1CCc2sccc2C1.O=S(=O)(O)O [CLOPIDOGREL BISULFATE]", "Compound NOT metabolized"),
]

Please indicate Bacterial Biotransformation recorded for `COc1ccc(Cc2nccc3cc(OC)c(OC)cc23)cc1OC`
Compound NOT metabolized

Please indicate Bacterial Biotransformation recorded for CC(C)(C(=O)O)c1ccc(C(O)CCCN2CCC(C(O)(c3ccccc3)c3ccccc3)CC2)cc1 (stereo not given) [FEXOFENADINE]
Compound NOT metabolized

Please indicate Bacterial Biotransformation recorded for CC(=O)O[C@]1(C(C)=O)CC[C@H]2[C@@H]3C=C(Cl)C4=CC(=O)[C@@H]5C[C@@H]5[C@]4(C)[C@H]3CC[C@@]21C [CYPROTERONE ACETATE]
Compound NOT metabolized

Please indicate Bacterial Biotransformation recorded for `CC[C@H](C)C(=O)O[C@H]1CCC=C2C=C[C@H](C)[C@H](CC[C@@H]3C[C@@H](O)CC(=O)O3)[C@H]21`
Compound metabolized

Please indicate Bacterial Biotransformation recorded for CCN(CC)C(=O)C1(c2ccccc2)CC1CN (stereo not given)
Compound NOT metabolized
